Assay read-out pIC50; system under study: QPCT (rhQPCT) (Homo sapiens (Human), UniProt Q16769).
Sequence (Q16769 29-361): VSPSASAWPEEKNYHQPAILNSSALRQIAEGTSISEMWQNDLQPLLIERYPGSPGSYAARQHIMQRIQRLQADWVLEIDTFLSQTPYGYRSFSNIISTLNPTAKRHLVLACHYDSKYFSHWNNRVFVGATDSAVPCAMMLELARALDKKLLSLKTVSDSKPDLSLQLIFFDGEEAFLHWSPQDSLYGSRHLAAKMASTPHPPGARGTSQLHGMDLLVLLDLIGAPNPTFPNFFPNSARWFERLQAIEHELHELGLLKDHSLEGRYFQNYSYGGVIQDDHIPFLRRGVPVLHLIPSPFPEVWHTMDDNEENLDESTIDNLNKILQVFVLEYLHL
pIC50: −log10 of the molar value.

Return reported pIC50. Input compound: Cn1cnnc1C1CCN(c2c(-c3ccc(F)nc3)ccc(C3COC3)c2C#N)CC1 [Example 108] > 7.00

Return reported pIC50. Input compound: Cn1cnnc1C1CCN(c2c(C#N)cccc2-c2cncc3c2ccn3C)CC1 [Example 12] > 7.00

Return reported pIC50. Input compound: CC(=O)c1ccc(-c2ccc(F)nc2)c(N2CCC(c3nncn3C)CC2)c1C#N [Example 97] > 7.00

Return reported pIC50. Input compound: Cn1cnnc1C1CCN(c2c(C#N)cccc2-c2ccc(Cl)nc2)CC1 [Example 40] 6.00 to 7.00

Return reported pIC50. Input compound: CN(C)CCOc1ccncc1-c1cccc(C#N)c1N1CCC(c2nncn2C)CC1 [Example 8] > 7.00

---

- Target entity: QPCT (rhQPCT) (Homo sapiens (Human))
pIC50: −log10 of the molar value.
Result type: pIC50

Check out these entries, answers already filled in.
                                   molecule  recorded_result
0  [2H]C([2H])([2H])n1cnnc1C1CCN(c2c(-c3ccc(F)nc3)ccc(-c3cnn(C)c3)c2C#N)CC1 [Example 54]           > 7.00
1  COc1cnc(-c2ccc(F)nc2)c(N2CCC(c3nncn3C)CC2)c1C#N [Example 137]     6.00 to 7.00
2  Cn1ccc(-c2cnc(-c3ccc(F)nc3)c(N3CCC(c4nncn4C)CC3)c2C#N)n1 [Example 138]     5.00 to 6.00
3  Cn1cnnc1C1[C@H]2CN(c3c(C#N)cccc3-c3ccc(F)nc3)C[C@@H]12 (some centres unmarked) [Example 75]     6.00 to 7.00
4  Cn1cnnc1C1CCN(c2c(-c3ccc(F)nc3)ccc(-c3ccnc(N)c3)c2C#N)CC1 [Example 44]           > 7.00

Now examine the next entry.
Return reported pIC50. Input molecule: Cc1cc(-c2ccc(-c3ccn(C)n3)c(C#N)c2N2CCC(c3nncn3C)CC2)cnn1 [Example 61] > 7.00

---

Assay read-out IC50; system under study: QPCT (rhQPCT) (Homo sapiens (Human), UniProt Q16769).

Please tell me the measured IC50 for Cc1ccc(-c2ccc(F)nc2)c(N2CCC(c3nncn3C)CC2)c1C#N ; system: QPCT (rhQPCT) (Homo sapiens (Human), UniProt Q16769). < 100 nM

Please tell me the measured IC50 for COc1ccncc1-c1cccc(C#N)c1N1CCC(c2nncn2C)CC1 ; system: QPCT (rhQPCT) (Homo sapiens (Human), UniProt Q16769). < 100 nM

Please tell me the measured IC50 for Cn1ccc(-c2ccc(-c3ccc(F)nc3)c(N3CCC(c4nncn4C)CC3)c2C#N)n1 ; system: QPCT (rhQPCT) (Homo sapiens (Human), UniProt Q16769). < 100 nM

Please tell me the measured IC50 for CN1CCOc2c(-c3cccc(C#N)c3N3CCC(c4nncn4C)CC3)cncc21 ; system: QPCT (rhQPCT) (Homo sapiens (Human), UniProt Q16769). 100 to 1000 nM

Please tell me the measured IC50 for Cn1cnnc1C1CCN(c2c(-c3ccnnc3)ccc(Cl)c2C#N)CC1 ; system: QPCT (rhQPCT) (Homo sapiens (Human), UniProt Q16769). < 100 nM

---

The entries below come with measured IC50 values attached.
- Target entity: QPCTL (Homo sapiens (Human))
- Measurement protocol: QPCTL Enzymatic Activity Assay (coupled-enzyme fluorescent assay, H-Gln-AMC substrate)
- Assay type: biochemical
- Experimental setup: recombinant truncated human QPCTL 10-12 nM, 10 μM H-Gln-AMC; read-out: QPCTL Inhibition IC50
- Sequence (Q9NXS2 53-382): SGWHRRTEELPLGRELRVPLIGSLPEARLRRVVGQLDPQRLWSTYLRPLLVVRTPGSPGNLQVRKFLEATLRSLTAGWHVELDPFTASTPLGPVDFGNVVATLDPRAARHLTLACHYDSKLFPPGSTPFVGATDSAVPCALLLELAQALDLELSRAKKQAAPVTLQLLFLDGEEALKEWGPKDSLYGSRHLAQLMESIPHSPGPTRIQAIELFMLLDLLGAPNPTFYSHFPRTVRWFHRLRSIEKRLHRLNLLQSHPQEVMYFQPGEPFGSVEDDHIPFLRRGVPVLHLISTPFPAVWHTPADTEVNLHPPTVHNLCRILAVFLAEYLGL

>>> df
                                   compound                 target_entity  recorded_result
0  Cn1cnnc1C1CCN(c2c(C#N)cccc2-c2cncc3c2cnn3C)CC1 [Example 4]  QPCTL (Homo sapiens (Human))   100 to 1000 nM

Return reported IC50. Input compound: Cn1cnnc1N1CCN(c2c(C#N)ccc(F)c2-c2ccc(F)nc2)CC1 [Example 127] < 100 nM

Return reported IC50. Input compound: Cn1cnnc1C1CCN(c2c(-c3ccc(F)nc3)ccc(-c3cnn(C4CC4)c3)c2C#N)CC1 [Example 63] < 100 nM

---

- Target entity: QPCTL (Homo sapiens (Human))
- Measurement protocol: Inhibition of Cellular QPCTL Activity - Imaging Assay, CC2C6 anti-CD47 staining of DLD-1 cells
- Format: cell-based
- Experimental setup: 72 hours, CC2C6 anti-CD47 high-content imaging
- Sequence (Q9NXS2 whole entry): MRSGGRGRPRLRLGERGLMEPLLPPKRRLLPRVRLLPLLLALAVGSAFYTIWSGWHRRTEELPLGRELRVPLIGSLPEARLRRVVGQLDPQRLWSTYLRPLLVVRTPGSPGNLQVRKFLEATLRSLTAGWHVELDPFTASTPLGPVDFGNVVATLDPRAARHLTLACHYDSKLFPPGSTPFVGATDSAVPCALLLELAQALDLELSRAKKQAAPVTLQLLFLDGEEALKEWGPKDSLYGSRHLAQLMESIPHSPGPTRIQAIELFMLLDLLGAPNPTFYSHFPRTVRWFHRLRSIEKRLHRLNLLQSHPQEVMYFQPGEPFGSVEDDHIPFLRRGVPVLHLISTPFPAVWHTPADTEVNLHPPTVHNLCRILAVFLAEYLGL
The entries below come with measured IC50 values attached.

Check out these entries, answers already filled in.
>>> print(df.to_string())
                                   compound  recorded_result
0  Cc1cc(-c2cccc(C#N)c2N2CCC(c3nncn3C)CC2)cnn1   100 to 1000 nM
1  Cc1ccc(-c2ccc(F)nc2)c(N2CCC(c3nncn3C)CC2)c1C#N         < 100 nM

Now examine the next entry.
Return reported IC50. Input compound: CN1CCC(Oc2ccc(-c3ccc(F)nc3)c(N3CCC(c4nncn4C)CC3)c2C#N)C1 (single isomer, unassigned) [Example 91] 100 to 1000 nM

---

- Target entity: QPCTL (Homo sapiens (Human), UniProt Q9NXS2)
- Measurement protocol: Inhibition of Cellular QPCTL Activity - FACS flow cytometry, CC2C6 anti-CD47 staining of Ramos cells
- Type: cell-based
- Experimental setup: Ramos human Burkitts Lymphoma cells, 72-96 hours, % CC2C6-positive cells
Result type: IC50

Check out these entries, answers already filled in.
                           structure_smiles  recorded_result
0  COc1ccc(-c2ccc(F)nc2)c(N2CCC(c3nncn3C)CC2)c1C#N         < 100 nM
1  Cn1cc2c(-c3cccc(C#N)c3N3CCC(c4nncn4C)CC3)cncc2n1   100 to 1000 nM

Return reported IC50. Input compound: Cn1cnnc1C1CCN(c2c(-c3ccc(F)nc3)ccc(-c3ccccc3)c2C#N)CC1 < 100 nM

Return reported IC50. Input compound: Cn1cnnc1C1CCN(c2c(C#N)cccc2-c2cncc3c2cnn3C)CC1 1000 to 10000 nM

Return reported IC50. Input compound: Cn1cnnc1C1CCN(c2c(C#N)ccc(F)c2-c2ccc(F)nc2)CC1 < 100 nM

Return reported IC50. Input compound: Cn1cnnc1C1CCN(c2c(C#N)ccc(F)c2-c2ccnnc2)CC1 100 to 1000 nM

Return reported IC50. Input compound: Cn1cnnc1C1CCN(c2c(C#N)cccc2-c2ccnnc2)CC1 < 100 nM

Return reported IC50. Input compound: Cn1cnnc1C1CCN(c2c(C#N)cccc2-c2cnccc2Cl)CC1 100 to 1000 nM

Return reported IC50. Input compound: CN(C)CCOc1ccc(-c2ccc(F)nc2)c(N2CCC(c3nncn3C)CC2)c1C#N < 100 nM

Return reported IC50. Input compound: Cn1cc(-c2ccc(-c3ccnnc3)c(N3CCC(c4nncn4C)CC3)c2C#N)cn1 < 100 nM

---

- Target entity: QPCTL (Homo sapiens (Human))
- Measurement protocol: QPCTL Enzymatic Activity Assay (coupled-enzyme fluorescent assay, H-Gln-AMC substrate)
- Format: biochemical
- Experimental setup: recombinant truncated human QPCTL 10-12 nM, 10 μM H-Gln-AMC; read-out: QPCTL Inhibition IC50
Result type: IC50

Check out these entries, answers already filled in.
>>> df
                                   compound  result_type  recorded_result
0  COc1ccncc1-c1cccc(C#N)c1N1CCC(n2cnnc2C)CC1 [Example 18]         IC50       > 10000 nM
1  Cn1cnnc1C1CCN(c2c(-c3ccc(F)nc3)ccc(OC3CCOC3)c2C#N)CC1 (single isomer, unassigned) [Example 89]         IC50         < 100 nM
2  [2H]C([2H])([2H])Oc1ccc(-c2ccc(F)nc2)c(N2CCC(c3nncn3C)CC2)c1C#N [Example 57]         IC50         < 100 nM

Now examine the next entry.
Return reported IC50. Input compound: CNCCOc1ccc(-c2ccc(F)nc2)c(N2CCC(c3nncn3C)CC2)c1C#N [Example 82] < 100 nM

---

- Target entity: UniProtKB Q9NXS2
- Measurement protocol: QPCTL Enzymatic Activity Assay (coupled-enzyme fluorescent assay, H-Gln-AMC substrate)
- Format: biochemical
- Experimental setup: recombinant truncated human QPCTL 10-12 nM, 10 μM H-Gln-AMC; read-out: QPCTL Inhibition IC50
Result type: IC50

Check out these entries, answers already filled in.
>>> print(df.to_string())
                                   compound  result_type  recorded_result
0  Cn1cnnc1C1CCN(c2c(C#N)cccc2-c2ccc3ocnc3c2)CC1         IC50   100 to 1000 nM
1  Cn1cnnc1C1CCN(c2c(C#N)cc(Cl)cc2-c2ccc(F)nc2)CC1         IC50         < 100 nM
2  COc1ccncc1-c1cccc(C#N)c1N1CCC(c2nnc(N)s2)CC1         IC50   100 to 1000 nM
3  Cn1cnnc1C1CCN(c2c(-c3ccc(F)nc3)ccc(F)c2C#N)CC1         IC50         < 100 nM
4  Cn1cnnc1C1CCN(c2c(C#N)cccc2-c2ccnnc2)CC1         IC50         < 100 nM
5  Cn1cnnc1C1CCN(c2c(-c3ccc(F)nc3)ccc(-c3cnn4c3OCCC4)c2C#N)CC1         IC50         < 100 nM
6  Cn1cnnc1C1CCN(c2c(C#N)cccc2-c2ccc(Cl)nc2)CC1         IC50         < 100 nM
7  Cc1cc(-c2c(F)ccc(C#N)c2N2CCC(c3nncn3C)CC2)cnc1F         IC50         < 100 nM

Return reported IC50. Input compound: COc1ccc(-c2ccc(F)nc2)c(N2CCC(c3nncn3C)CC2)c1C#N < 100 nM

Return reported IC50. Input compound: CN(C)CCOc1ccncc1-c1cccc(C#N)c1N1CCC(c2nncn2C)CC1 < 100 nM

Return reported IC50. Input compound: Cn1cnnc1C1CCN(c2c(-c3ccc(F)nc3)ccc(N)c2C#N)CC1 < 100 nM
